TEST DETAILS: Experimental gradient RP-LC retention time of peptides (LC-ESI-MS/MS)
Assay type: physicochemical
TEST PARAMETERS: Table 1, model peptides; gradient RP-LC, XTerra MS C18 3.5 μm 2.1 × 100 mm, 0-60% ACN with 0.1% TFA, linear 90 min, 200 μL/min, 20°C, ESI-MS/MS, at peak intensity maximum
Lab note: cut-off is 20 min. Strictly less in tR exp is T. Exactly 20 min or more is F.

Lookup: API: query returns whether the substance falls strictly under 20 min in tR exp. Query: CCAAADPHECYAK [model peptide from tryptic digest of model protein 6]
Found: T

Lookup: API: query returns whether the substance falls strictly under 20 min in tR exp. Query: VHTECCHGDLLECADDR [model peptide from tryptic digest of model protein 6]
Found: F

Lookup: API: query returns whether the substance falls strictly under 20 min in tR exp. Query: AAFTECCQAADK [model peptide from tryptic digest of model protein 6]
Found: T

Lookup: API: query returns whether the substance falls strictly under 20 min in tR exp. Query: YPNCAYK [model peptide from tryptic digest of model protein 7]
Found: T

Lookup: API: query returns whether the substance falls strictly under 20 min in tR exp. Query: YICENQDSISSK [model peptide from tryptic digest of model protein 6]
Found: T

Lookup: API: query returns whether the substance falls strictly under 20 min in tR exp. Query: VHTECCHGDLLECADDRADLAK [model peptide from tryptic digest of model protein 6]
Found: F

Lookup: API: query returns whether the substance falls strictly under 20 min in tR exp. Query: TCVADESAENCDK [model peptide from tryptic digest of model protein 6]
Found: T

Lookup: API: query returns whether the substance falls strictly under 20 min in tR exp. Query: HIIVACEGNPYVPVHFDASV [model peptide from tryptic digest of model protein 7]
Found: F

====

TEST DETAILS: Experimental gradient RP-LC retention time of peptides (LC-ESI-MS/MS)
Assay type: physicochemical
TEST PARAMETERS: Table 5, Bacillus subtilis proteome peptides, one peptide, Xcorr below 1.5; gradient RP-LC, XTerra MS C18, 0-60% ACN with 0.1% TFA in 90 min, 200 μL/min, 20°C, ESI-MS/MS
Experimental: The chromatographic analysis was performed on C-18 analytical column: XTerra MS C18 3.5 μm (2.1 × 100 mm) column (Waters, Milford, MA, USA). The mobile phase consisted of two solvents (A and B) mixed on-line. […] The experimental retention times of the peptides (tR exp) were determined at peak intensity maximum. […]
METRIC NAME: tR exp (min)
// return numeric value only (unit: min, not printed)

Entry "GQEQLIPPLIL" ; tR exp = 81.34

Entry "IDFPTNITMD" ; tR exp = 96.80

Entry "LAAGISTI" ; tR exp = 92.62

Entry "AQLSEKKGADGYL" ; tR exp = 26.46

Entry "KIDKSIFPGIQGGPLMH" ; tR exp = 12.03

Entry "GIIAAYG" ; tR exp = 89.29

Entry "HGGSLSAPAIH" ; tR exp = 97.03

Entry "TGALIVYTSADSVLQIAAHEEVVPLEE" ; tR exp = 52.12

Entry "IGLLIFLP" ; tR exp = 93.97

Entry "PIITVAKEAWPTL" ; tR exp = 83.17

Entry "ELSASMG" ; tR exp = 18.33

Entry "PQTPVP" ; tR exp = 80.37

Entry "DGITDVL" ; tR exp = 93.5

Entry "IHTLEHLLAFTI" ; tR exp = 81.04

Entry "NRAVGFISFVI" ; tR exp = 58.59

Entry "LTELQVRHII" ; tR exp = 48.06

Entry "DGWKVCLGKVGSMDAHKVVAAIETASKKSG" ; tR exp = 37.72

Entry "EPIQSFFQID" ; tR exp = 51.92

====

TEST DETAILS: Experimental gradient RP-LC retention time of peptides (LC-ESI-MS/MS)
Assay type: physicochemical
TEST PARAMETERS: experimental gradient HPLC retention time (LC-ESI-MS/MS); Table 4 test peptides
METRIC NAME: tR exp (min)
// return numeric value only (unit: min, not printed)

Entry "LNSLDSR" ; tR exp = 14.29

Entry "GHNPGQPEPLSGSK" ; tR exp = 17.05

Entry "VVVSVNTDQDQAQAQSQDGED" ; tR exp = 19.37

Entry "SHTGKAAVLNR" ; tR exp = 24.54

Entry "ELQEKFLIPAVEQKK" ; tR exp = 29.27

====

TEST DETAILS: Experimental gradient RP-LC retention time of peptides (LC-ESI-MS/MS)
Format: physicochemical
TEST PARAMETERS: experimental gradient HPLC retention time (LC-ESI-MS/MS); Table 4 test peptides
# cutoff 30 min applies to tR exp; >= gives true, < gives false

Lookup: Hi, just wondering whether "LEIASEFGVNLGADTTSR" shows tR exp of 30 min or higher.
Found: true

Lookup: Hi, just wondering whether "LIDKHKKYVYHRINK" shows tR exp of 30 min or higher.
Found: false

Lookup: Hi, just wondering whether "HSSDEEPFSALAFK" shows tR exp of 30 min or higher.
Found: true

Lookup: Hi, just wondering whether "IDIALESKK" shows tR exp of 30 min or higher.
Found: false

Lookup: Hi, just wondering whether "INIMSAR" shows tR exp of 30 min or higher.
Found: false

Lookup: Hi, just wondering whether "GNQVSENLQQAAR" shows tR exp of 30 min or higher.
Found: false

Lookup: Hi, just wondering whether "LALDLESKK" shows tR exp of 30 min or higher.
Found: false

Lookup: Hi, just wondering whether "DIMSPSR" shows tR exp of 30 min or higher.
Found: false

Lookup: Hi, just wondering whether "NLLFAAR" shows tR exp of 30 min or higher.
Found: false

Lookup: Hi, just wondering whether "SGSIESIDVSLTDLR" shows tR exp of 30 min or higher.
Found: true

Lookup: Hi, just wondering whether "NIAEMVK" shows tR exp of 30 min or higher.
Found: false

====

TEST DETAILS: Experimental gradient RP-LC retention time of peptides (LC-ESI-MS/MS)
Type: physicochemical
TEST PARAMETERS: experimental gradient HPLC retention time (LC-ESI-MS/MS); Table 4 test peptides
I'd appreciate it if you could supply tR exp values for the items below.
// return numeric value only (unit: min, not printed)

Entry "EVMIEGVLSVLEGQAPK" ; tR exp = 29.51

Entry "SGETEDSTIADIAVATNAGQIK" ; tR exp = 30.05

Entry "AAEMAVARQNEQKVKK" ; tR exp = 29.44

Entry "EGTVIKELIGAGQLDEK" ; tR exp = 29.49

Entry "EAEELIPNVTTAAVK" ; tR exp = 29.18

Entry "QDIPIEARMNEIVHSLK" ; tR exp = 29.33

Entry "IDNLSYYIEQEYK" ; tR exp = 30.89

Entry "DRVFIAPVGGGPR" ; tR exp = 29.82
